Reference source for all entries: IntAct's records for PubMed 31515488

B1: Zinc finger protein 473 (Homo sapiens), Q8WTR7 (parent)
chain: MAEEFVTLKDVGMDFTLGDWEQLGLEQGDTFWDTALDNCQDLFLLDPPRPNLTSHPDGSEDLEPLAGGSPEATSPDVTETKNSPLMEDFFEEGFSQEIIEMLSKDGFWNSNFGEACIEDTWLDSLLGDPESLLRSDIATNGESPTECKSHELKRGLSPVSTVSTGEDSMVHNVSEKTLTPAKSKEYRGEFFSYSDHSQQDSVQEGEKPYQCSECGKSFSGSYRLTQHWITHTREKPTVHQECEQGFDRNASLSVYPKTHTGYKFYVCNEYGTTFSQSTYLWHQKTHTGEKPCKSQDSDHPPSHDTQPGEHQKTHTDSKSYNCNECGKAFTRIFHLTRHQKIHTRKRYECSKCQATFNLRKHLIQHQKTHAAKTTSECQECGKIFRHSSLLIEHQALHAGEEPYKCNERGKSFRHNSTLKIHQRVHSGEKPYKCSECGKAFHRHTHLNEHRRIHTGYRPHKCQECVRSFSRPSHLMRHQAIHTAEKPYSCAECKETFSDNNRLVQHQKMHTVKTPYECQECGERFICGSTLKCHESVHAREKQGFFVSGKILDQNPEQKEKCFKCNKCEKTFSCSKYLTQHERIHTRGVKPFECDQCGKAFGQSTRLIHHQRIHSRVRLYKWGEQGKAISSASLIKLQSFHTKEHPFKCNECGKTFSHSAHLSKHQLIHAGENPFKCSKCDRVFTQRNYLVQHERTHARKKPLVCNECGKTFRQSSCLSKHQRIHSGEKPYVCDYCGKAFGLSAELVRHQRIHTGEKPYVCQECGKAFTQSSCLSIHRRVHTGEKPYRCGECGKAFAQKANLTQHQRIHTGEKPYSCNVCGKAFVLSAHLNQHLRVHTQETLYQCQRCQKAFRCHSSLSRHQRVHNKQQYCL

variants of: B1; details: with gpt2l_human GPATCH2L
test readout: effect of a mutation on the interaction

Sample records with effect of a mutation on the interaction:
{"columns": ["mut", "effect of a mutation on the interaction"],
 "data": [
  ["E309G", "with no effect"],
  ["R223C", "with no effect"],
  ["R605Q", "with no effect"],
  ["S535N", "with no effect"]
]}

Given the entry Y456H , report its measured effect of a mutation on the interaction.
with no effect

Same question, S59G this time
with no effect

Same question, S662A this time
with no effect

Same question, T654I this time
with no effect
